Hey, just so you know, these numbers are from ChEMBL document CHEMBL5126668.

- target_or_system: Plasmepsin IX (Plasmodium falciparum, UniProt Q8ILG2)
- Sequence (Q8ILG2 whole entry): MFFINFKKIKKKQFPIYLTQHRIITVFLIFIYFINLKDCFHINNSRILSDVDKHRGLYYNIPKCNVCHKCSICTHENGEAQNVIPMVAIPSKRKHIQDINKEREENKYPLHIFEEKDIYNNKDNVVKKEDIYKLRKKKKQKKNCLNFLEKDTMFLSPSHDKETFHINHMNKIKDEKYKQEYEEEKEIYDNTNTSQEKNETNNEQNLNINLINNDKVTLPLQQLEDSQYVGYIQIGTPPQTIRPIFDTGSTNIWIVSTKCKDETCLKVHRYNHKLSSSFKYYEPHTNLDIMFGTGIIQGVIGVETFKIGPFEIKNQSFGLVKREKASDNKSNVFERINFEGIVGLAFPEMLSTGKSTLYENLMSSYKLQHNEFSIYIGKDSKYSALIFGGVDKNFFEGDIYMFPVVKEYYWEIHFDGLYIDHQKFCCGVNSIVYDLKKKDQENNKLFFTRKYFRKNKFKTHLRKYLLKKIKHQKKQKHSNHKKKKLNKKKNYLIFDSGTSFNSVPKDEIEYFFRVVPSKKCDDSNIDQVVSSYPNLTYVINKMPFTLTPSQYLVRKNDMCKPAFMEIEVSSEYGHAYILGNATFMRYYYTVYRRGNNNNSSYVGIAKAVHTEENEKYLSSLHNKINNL
parameter_measured: IC50 (nM)

compound=CCC1(CC)CC(=O)N([C@@H]2CCOc3ccc(C(=O)N[C@H]4CC(C)(C)Oc5ccccc54)cc32)C(=N)N1 parameter_measured=IC50 result_units=nM reported_value=1.4

[I] CCC1(CC)CC(=O)N([C@@H]2CCOc3ccc(C(=O)N[C@H]4CCCOc5ccccc54)cc32)C(=N)N1
[II] CCC1(CC)CC(=O)N([C@@H]2CCOc3ccc(C(=O)NC4CCOc5ccccc54)cc32)C(=N)N1 (single isomer, unassigned)
[III] CCC1(CC)CC(=O)N([C@@H]2CCOc3ccc(C(=O)N[C@@H]4c5ccccc5OC4(C)C)cc32)C(=N)N1
Given 3 compounds, produce a descending ranking by IC50. Output the labels ranked as instructed.
I, III, II
(I: 68 nM, III: 12 nM, II: 2.2 nM)

###

- assay_details: Volume of distribution in rat
- Format: ADME
- experimental_context: in vivo
parameter_measured: Vd (L/kg)

compound=CCC1(CC)CC(=O)N([C@@H]2CCOc3ccc(C(=O)N[C@H]4CC(C)(C)Oc5ccccc54)cc32)C(=N)N1 reported_value=9.4

[a] CCC1(CC)CC(=O)N([C@@H]2CCOc3ccc(C(=O)NC4CCOc5ccccc54)cc32)C(=N)N1 (single isomer, unassigned)
[b] CCC[C@H](c1cccc(C(=O)N[C@H]2CCOc3ccccc32)c1)N1C(=N)NC(CC)(CC)CC1=O
# argmax over Vd for candidates a and b I would appreciate it if you answered with the label of your choice.
a

###

- assay_details: Oral bioavailability in mouse
- Type: ADME, organism-based
- experimental_context: in vivo
parameter_measured: bioavailability (%)

[P] CCC1(CC)CC(=O)N([C@@H]2CCOc3ccc(C(=O)NC4CCOc5ccccc54)cc32)C(=N)N1 (single isomer, unassigned)
[Q] CCC[C@H](c1cccc(C(=O)N[C@H]2CCOc3ccccc32)c1)N1C(=N)NC(CC)(CC)CC1=O
# argmax over bioavailability for candidates P and Q I would appreciate it if you answered with the label of your choice.
Q
(Q: 14%, P: 4%)

###

- assay_details: Lipophilicity, log D of compound at pH 7.4
- Format: physicochemical
- experimental_context: buffer
parameter_measured: logD

compound=CCC[C@H](c1cccc(C(=O)N[C@H]2CCOc3ccccc32)c1)N1C(=N)NC(CC)(CC)CC1=O reported_value=2.9
compound=CCC1(CC)CC(=O)N([C@@H]2CCOc3ccc(C(=O)N[C@H]4CC(C)(C)Oc5ccccc54)cc32)C(=N)N1 reported_value=2.5
compound="CCC1(CC)CC(=O)N([C@@H]2CCOc3ccc(C(=O)NC4CCOc5ccccc54)cc32)C(=N)N1 (single isomer, unassigned)" reported_value=2.1

###

- assay_details: Kinetic solubility of the compound
- Format: physicochemical
- experimental_context: read-out: Kinetic_solubility
parameter_measured: solubility kinetic (µM)

compound="CCC1(CC)CC(=O)N([C@@H]2CCOc3ccc(C(=O)NC4CCOc5ccccc54)cc32)C(=N)N1 (single isomer, unassigned)" parameter_measured="solubility kinetic" reported_value=0.2
compound=CCC1(CC)CC(=O)N([C@@H]2CCOc3ccc(C(=O)N[C@H]4CC(C)(C)Oc5ccccc54)cc32)C(=N)N1 parameter_measured="solubility kinetic" reported_value=0.1
compound=CCC[C@H](c1cccc(C(=O)N[C@H]2CCOc3ccccc32)c1)N1C(=N)NC(CC)(CC)CC1=O parameter_measured="solubility kinetic" reported_value=0.2

###

- target_or_system: Plasmepsin X (Plasmodium falciparum (isolate 3D7), UniProt Q8IAS0)
- Sequence (Q8IAS0 whole entry): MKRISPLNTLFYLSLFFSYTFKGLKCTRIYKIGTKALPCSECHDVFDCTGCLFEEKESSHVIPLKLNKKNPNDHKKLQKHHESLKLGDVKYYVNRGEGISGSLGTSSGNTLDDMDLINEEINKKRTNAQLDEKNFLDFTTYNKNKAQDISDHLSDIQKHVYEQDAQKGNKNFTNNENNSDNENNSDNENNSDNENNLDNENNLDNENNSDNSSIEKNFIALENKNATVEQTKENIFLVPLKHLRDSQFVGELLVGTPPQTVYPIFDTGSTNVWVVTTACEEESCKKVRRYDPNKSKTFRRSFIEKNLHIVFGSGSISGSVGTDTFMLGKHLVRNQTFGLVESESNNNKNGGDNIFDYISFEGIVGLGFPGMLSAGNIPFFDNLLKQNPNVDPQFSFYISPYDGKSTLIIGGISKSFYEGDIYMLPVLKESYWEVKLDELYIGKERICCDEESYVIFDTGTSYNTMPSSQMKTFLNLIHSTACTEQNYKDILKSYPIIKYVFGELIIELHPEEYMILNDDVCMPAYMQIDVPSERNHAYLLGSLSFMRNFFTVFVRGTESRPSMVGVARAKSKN
- assay_details: Inhibition of Plasmodium falciparum 3D7 HA-glms-tagged PMX using DABCYL-HSFIQEGKEE-EDANS as substrate measured after 2 hrs by FRET assay
pIC50: −log10 of the molar value.
parameter_measured: pIC50

Worked examples follow.
molecule=CC(C)C[C@H](c1ccc(C(F)(F)F)c(C(=O)N2Cc3nccnc3C2)c1)N1C(=N)N[C@](CC2CC2)(c2ccccc2)CC1=O target_or_system="Plasmepsin X (Plasmodium falciparum (isolate 3D7), UniProt Q8IAS0)" reported_value=8.24
molecule=CCC1(CC)CC(=O)N([C@@H]2CCOc3ccc(C(=O)N[C@H]4CCCOc5ccccc54)cc32)C(=N)N1 target_or_system="Plasmepsin X (Plasmodium falciparum (isolate 3D7), UniProt Q8IAS0)" reported_value=9.22

[A] CCC1(CC)CC(=O)N([C@@H]2CCOc3ccc(C(=O)N[C@@H]4c5ccccc5OC4(C)C)cc32)C(=N)N1
[B] CCC1(CC)CC(=O)N([C@@H]2CCOc3ccc(C(=O)NC4CCOc5ccccc54)cc32)C(=N)N1 (single isomer, unassigned)
From the items above, decide which of A and B has the lower pIC50 reading. I would appreciate it if you answered with the label of your choice.
A
(A: 9.40, B: 10.15)

###

- assay_details: Mean residence time in rat
- Type: ADME
- experimental_context: in vivo
parameter_measured: MRT (h)

molecule=CCC1(CC)CC(=O)N([C@@H]2CCOc3ccc(C(=O)N[C@H]4CC(C)(C)Oc5ccccc54)cc32)C(=N)N1 reported_value=3.7

[P] CCC1(CC)CC(=O)N([C@@H]2CCOc3ccc(C(=O)NC4CCOc5ccccc54)cc32)C(=N)N1 (single isomer, unassigned)
[Q] CCC[C@H](c1cccc(C(=O)N[C@H]2CCOc3ccccc32)c1)N1C(=N)NC(CC)(CC)CC1=O
From the items above, decide which of P and Q has the lower MRT reading. I would appreciate it if you answered with the label of your choice.
Q

###

- assay_details: Protein binding in mouse plasma
- Format: ADME, cell-free
- experimental_context: read-out: PPB (converted)
parameter_measured: fraction unbound

[I] CCC[C@H](c1cccc(C(=O)N[C@H]2CCOc3ccccc32)c1)N1C(=N)NC(CC)(CC)CC1=O
[II] CCC1(CC)CC(=O)N([C@@H]2CCOc3ccc(C(=O)NC4CCOc5ccccc54)cc32)C(=N)N1 (single isomer, unassigned)
From the items above, decide which of I and II has the lower fraction unbound reading. I would appreciate it if you answered with the label of your choice.
I

###

- assay_details: Protein binding in rat plasma
- Assay type: ADME, cell-free
- experimental_context: read-out: PPB (converted)
parameter_measured: fraction unbound

[I] CCC[C@H](c1cccc(C(=O)N[C@H]2CCOc3ccccc32)c1)N1C(=N)NC(CC)(CC)CC1=O
[II] CCC1(CC)CC(=O)N([C@@H]2CCOc3ccc(C(=O)NC4CCOc5ccccc54)cc32)C(=N)N1 (single isomer, unassigned)
From the items above, decide which of I and II has the lower fraction unbound reading. I would appreciate it if you answered with the label of your choice.
I
(I: 0.02, II: 0.152)

###

- Test system: Plasmodium falciparum
- assay_details: Antimalarial activity against asexual blood stage Plasmodium falciparum infected in RBC measured after 72 hrs by LDH release assay
- Format: functional, organism-based
- experimental_context: Erythrocyte
parameter_measured: EC50 (µM)

Worked examples follow.
compound=C[C@H](NC(=O)c1cc(F)cc(CN2C(=N)NC3(CCCCC3)CC2=O)c1)c1ccccc1 result_units=µM reported_value=0.25
compound=CCC1(CC)CC(=O)N(Cc2cc(F)cc(C(=O)N[C@@H](C)c3ccccc3)c2)C(=N)N1 result_units=µM reported_value=0.093
compound="CC(C)[C@]1(C)CC(=O)N(C(c2ccccc2)c2cccc(C(=O)N[C@@H](C)c3ccccc3)c2)C(=N)N1 (stereo partly specified)" result_units=µM reported_value=0.0062
compound=CC(C)C[C@@H](c1ccc(C(F)(F)F)c(C(=O)N2Cc3nccnc3C2)c1)N1C(=N)N[C@](CC2CC2)(c2ccccc2)CC1=O result_units=µM reported_value=0.69
compound=CCC1(CC)CC(=O)N([C@H](CCO)c2cccc(C(=O)N[C@@H](C)c3ccccc3)c2)C(=N)N1 result_units=µM reported_value=0.21

[A] CCC1(CC)CC(=O)N([C@@H]2CCOc3ccc(C(=O)N[C@@H]4c5ccccc5OC4(C)C)cc32)C(=N)N1
[B] CC(C)[C@]1(C)CC(=O)N(Cc2cccc(C(=O)NC3CCNc4ccccc43)c2)C(=N)N1 (mixture of isomers)
# argmax over EC50 for candidates A and B I would appreciate it if you answered with the label of your choice.
B
(B: 0.064 µM, A: 0.0014 µM)

[a] CCC1(CC)CC(=O)N([C@@H](c2ccccc2)c2cccc(C(=O)N[C@@H](C)c3ccccc3)c2)C(=N)N1
[b] CCC1(CC)CC(=O)N(Cc2ccnc(C(=O)N[C@H]3CCOc4ccccc43)n2)C(=N)N1
[c] CCC1(CC)CC(=O)N([C@@H]2CCOc3ccc(C(=O)NC4CC(=O)Oc5ccccc54)cc32)C(=N)N1 (mixture of isomers)
[d] CCC[C@H](c1cccc(C(=O)N[C@@H](C)c2ccccc2)c1)N1C(=N)NC(CC)(CC)CC1=O
[e] CCC1(CC)CC(=O)N([C@H](CCOC)c2cccc(C(=O)N[C@@H](C)c3ccccc3)c2)C(=N)N1
Order the entries by their reported EC50, beginning at the minimum. Output the labels ranked as instructed.
d, e, b, c, a
(d: 0.0008 µM, e: 0.04 µM, b: 0.065 µM, c: 0.22 µM, a: 0.83 µM)

[A] CC(C)C[C@H](c1ccc(C(F)(F)F)c(C(=O)N2Cc3nccnc3C2)c1)N1C(=N)N[C@](CC2CC2)(c2ccccc2)CC1=O
[B] CC(C)[C@]1(C)CC(=O)N([C@@H](c2ccccc2)c2cccc(C(=O)N[C@@H](C)c3ccccc3)c2)C(=N)N1
From the items above, decide which of A and B has the lower EC50 reading. I would appreciate it if you answered with the label of your choice.
A
